For each entry below, report its Z10-15:Ald value.
TEST NAME: Storage test of aldehyde mixture containing 4-hydroxy-TEMPO and 10 ppm Copper with additive (Example 3)
TEST SETTINGS: after 55 C 14 days without cap; 10 ppm Copper; before test 2.61, blank 2.72
Numbers only.

MOLECULE	ENDPOINT RESULT
CC1(C)CC(O)CC(C)(C)N1[O] [Additive 4-OH-TEMPO]	2.69

Hi, could you look up Z10-15:Ald for each item in my list?
1. Cc1nnc(S)s1 [5-Methyl-1,3,4-thiadiazole-2-thiol]
2. CC1(C)CC(=O)CC(C)(C)N1 [2,2,6,6-tetramethyl-4-piperidone]
3. [Na+].[O-][n+]1ccccc1[S-] [Sodium pyrithione]
4. Sc1nc2ccccc2[nH]1 [2-mercapto-Benzimidazole]
5. Nc1nnc(S)s1 [5-Amino-1,3,4-Thiadiazole-2-thiol]
6. Cn1ccnc1S [2-mercapto-1-methylimidazole]
7. SC1=NCCS1 [2-thiazoline-2-thiol]

Reply:
[2.74, 3.14, 2.87, 3.10, 2.95, 2.88, 2.48]

---

So I've got a bunch of compounds here, and I need their OH tempo values.
TEST NAME: Storage test of aldehyde mixture containing 4-hydroxy-TEMPO with additive (Example 4)
Format: physicochemical
TEST SETTINGS: after 55° C. 14 days without cap; before test 1.19, without additive 1.11
Answers are plain numbers.

COMPOUND	OH tempo
Nc1nnc(S)s1 [5-Amino-1,3,4-Thiadiazole-2-thiol]	1.12

Record OH tempo for all entries; do not skip any.
1. SC1=NCCS1 [2-thiazoline-2-thiol]
2. Sc1nc2ccccc2[nH]1 [2-mercapto-Benzimidazole]

Reply:
[0.83, 1.05]

Batch: OH tempo for all items listed.
1. Cn1ccnc1S [2-mercapto-1-methylimidazole]
2. [Na+].[O-][n+]1ccccc1[S-] [Sodium pyrithione]
3. CC1(C)CC(O)CC(C)(C)N1[O] [Additive 4-OH-TEMPO]
4. CC1(C)CC(=O)CC(C)(C)N1 [2,2,6,6-tetramethyl-4-piperidone]
5. Cc1nnc(S)s1 [5-Methyl-1,3,4-thiadiazole-2-thiol]

Reply:
1.12
1.05
1.53
1.11
1.14

---

TEST NAME: Accelerated storage test of aldehyde mixture with additive, 40 ppm Cu (Example 1)
Assay type: physicochemical
TEST SETTINGS: after 55° C. 14 days without cap, before test 6.7, blank 18.84135
MEASUREMENT LABEL: C16:Acid
Numbers only.

COMPOUND	ENDPOINT RESULT
CN(C)CCO [Dimethylethanolamine]	11.55
[Na+].[OH-] [Sodium Hydroxide]	16.74

# per-item lookup of C16:Acid; items listed below
1. Cc1ccc(O)c(-n2nc3ccccc3n2)c1 [Tinuvin P]
2. C1COCCN1 [Morpholine]
3. Cc1c(C)c2c(c(C)c1O)CCC(C)(CCCC(C)CCCC(C)CCCC(C)C)O2 (racemic) [Tocopherol]
4. Cc1cc(C(C)(C)C)c(O)c(C(C)(C)C)c1 [BHT]
5. CC(C)(C)c1cc(O)ccc1O [TBHQ]
6. C[S+](C)[O-] [DMSO]
7. CC1(C)CC(OC(=O)CCCCCCCCC(=O)OC2CC(C)(C)NC(C)(C)C2)CC(C)(C)N1 [Tinuvin 770]
8. CCCOC(=O)c1cc(O)c(O)c(O)c1 [Propyl Gallate]

Reply:
1: 19.1541; 2: 12.35; 3: 17.008; 4: 16.05; 5: 16.52; 6: 19.17; 7: 18.22; 8: 14.55

Quick one: give me C16:Acid for each item below, same order please.
1. O=S1(=O)CCCC1 [Sulfolane]
2. OCC(O)CO [Glycerol]

Reply:
[18.34, 18.83]
